Origin of values: patent US20250270343A1

A collection of binders and their measured MFI fold over background
Molecular target: T1, full-length untagged human GPNMB expressed on cells (human, UniProt Q14956 23-572)
T1 construct: also used here for GPNMB on human monocyte-derived macrophages in the functional assays; also called huGPNMB; Freestyle293-huGPNMB+
T1 sequence: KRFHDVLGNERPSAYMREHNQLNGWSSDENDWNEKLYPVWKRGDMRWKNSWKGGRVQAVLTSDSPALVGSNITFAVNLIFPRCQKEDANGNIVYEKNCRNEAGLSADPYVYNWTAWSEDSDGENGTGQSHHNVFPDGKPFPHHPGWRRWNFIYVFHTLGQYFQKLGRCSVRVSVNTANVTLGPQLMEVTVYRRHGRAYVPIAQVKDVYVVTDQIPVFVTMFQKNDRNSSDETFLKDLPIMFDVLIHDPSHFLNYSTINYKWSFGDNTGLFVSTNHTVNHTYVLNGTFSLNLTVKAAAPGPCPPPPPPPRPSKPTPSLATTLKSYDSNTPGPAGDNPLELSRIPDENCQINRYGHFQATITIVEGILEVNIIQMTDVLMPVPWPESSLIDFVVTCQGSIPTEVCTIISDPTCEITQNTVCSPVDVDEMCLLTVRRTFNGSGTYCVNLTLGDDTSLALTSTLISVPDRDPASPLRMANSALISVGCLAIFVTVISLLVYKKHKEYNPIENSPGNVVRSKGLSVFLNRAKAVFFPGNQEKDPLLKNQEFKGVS
Assay: FACS, FS293-huGPNMB+ cells

- BINDER: "anti-GPNMB antibody GPN-06 (antibody, human IgG1, V domains shown, chimeric) VH: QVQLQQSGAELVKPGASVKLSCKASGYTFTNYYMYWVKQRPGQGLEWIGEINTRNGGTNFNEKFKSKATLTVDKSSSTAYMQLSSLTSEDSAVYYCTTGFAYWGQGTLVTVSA VL: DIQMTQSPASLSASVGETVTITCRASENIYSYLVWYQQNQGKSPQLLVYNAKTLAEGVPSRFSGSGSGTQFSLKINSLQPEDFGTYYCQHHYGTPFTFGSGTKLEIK"
  UNITS_SYMBOL: "fold"
  MFI fold over background: 66.4
- BINDER: "anti-GPNMB antibody GPN-38 (antibody, human IgG1, V domains shown, chimeric) VH: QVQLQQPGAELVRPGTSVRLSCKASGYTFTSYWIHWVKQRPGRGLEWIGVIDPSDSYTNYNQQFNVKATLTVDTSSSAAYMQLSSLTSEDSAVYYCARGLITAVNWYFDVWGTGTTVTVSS VL: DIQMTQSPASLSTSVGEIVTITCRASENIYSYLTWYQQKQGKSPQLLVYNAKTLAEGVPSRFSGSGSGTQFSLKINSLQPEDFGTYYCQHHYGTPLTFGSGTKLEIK"
  UNITS_SYMBOL: "fold"
  MFI fold over background: 20.7
- BINDER: "anti-GPNMB antibody GPN-24 (antibody, human IgG1, V domains shown, chimeric) VH: QVQLQQPGAELVKPGASVKMSCKASGYTFTSYWITWVKQRPGQGLEWIGDIHPGSGRSNYNEKFKNKATLNVDTSSSTVYMQLSSLTSEDSAVYYCARDYLFAYWGQGTLVTVSA VL: DIQMTQSPSSLSASLGERVSLTCRASQEISGYLSWLQQKPDGTIKRLIYSTSTLDSGVPKRFSGSRSGSDYSLTISSLESEDFADYYCLQYTSSPPTFGGGTKLEIK"
  UNITS_SYMBOL: "fold"
  MFI fold over background: 59.9
- BINDER: "anti-GPNMB antibody GPN-35 (antibody, human IgG1, V domains shown, chimeric) VH: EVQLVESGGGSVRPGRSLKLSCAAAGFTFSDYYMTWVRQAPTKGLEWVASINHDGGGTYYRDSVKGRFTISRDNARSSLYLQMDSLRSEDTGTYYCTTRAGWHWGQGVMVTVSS VL: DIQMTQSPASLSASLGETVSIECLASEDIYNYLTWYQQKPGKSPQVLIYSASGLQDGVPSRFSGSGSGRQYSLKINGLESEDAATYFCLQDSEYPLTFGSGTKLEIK"
  UNITS_SYMBOL: "fold"
  MFI fold over background: 104
